# tgt: equine serum butyrylcholinesterase (BChE, EC 3.1.1.8) (Equus caballus, UniProt P81908)
# Construct: equine serum butyrylcholinesterase (BChE, EC 3.1.1.8); purchased Sigma-Aldrich (Saint Louis, MO, USA); host or cells: equine serum
# Sequence (P81908 whole entry): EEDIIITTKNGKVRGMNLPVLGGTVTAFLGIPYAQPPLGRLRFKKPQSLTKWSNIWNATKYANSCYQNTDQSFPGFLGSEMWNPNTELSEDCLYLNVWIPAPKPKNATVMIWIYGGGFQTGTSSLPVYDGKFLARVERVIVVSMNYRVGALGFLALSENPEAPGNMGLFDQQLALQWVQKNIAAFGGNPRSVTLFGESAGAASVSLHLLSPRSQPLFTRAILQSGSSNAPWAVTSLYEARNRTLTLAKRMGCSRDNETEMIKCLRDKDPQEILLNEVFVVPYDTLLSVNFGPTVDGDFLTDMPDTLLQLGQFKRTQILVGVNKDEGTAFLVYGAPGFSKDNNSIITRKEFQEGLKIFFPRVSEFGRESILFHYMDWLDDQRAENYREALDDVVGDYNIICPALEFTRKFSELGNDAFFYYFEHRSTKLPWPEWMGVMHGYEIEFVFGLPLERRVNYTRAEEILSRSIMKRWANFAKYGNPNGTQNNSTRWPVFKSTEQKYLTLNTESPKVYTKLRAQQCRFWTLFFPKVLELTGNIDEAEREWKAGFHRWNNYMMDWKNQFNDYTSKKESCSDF
# assayExplanation: Inhibition of equine serum butyrylcholinesterase (Ellman assay)
# Assay type: biochemical
# measurementConditions: read-out: Inhibition % at 20 µM, Equine BChE
# Method: The following enzymes were purchased from Sigma-Aldrich (Saint Louis, MO, USA): porcine liver carboxylesterase (CES, EC 3.1.1.1), human erythrocyte acetylcholinesterase (AChE, EC 3.1.1.7) and equine serum butyrylcholinesterase (BChE, EC 3.1.1.8). […] Test compounds were dissolved in DMSO. […] Substrate was then added and residual enzyme activity relative to an inhibitor-free control was measured using a Bio-Rad Benchmark Plus microplate reader (Marnes-la-Coquette, France). […]
quantityMeasured: inhibition at 20 µM (%)
Give the value, in units of %, as a plain number.

1. O=C1/C(=N\Nc2c(Cl)cccc2Cl)C(C(F)(F)C(F)(F)F)=NN1c1ccccc1: 6.2
2. O=C1NN=C(C(F)(F)F)/C1=N/Nc1ccccc1: 10.7
3. O=C1/C(=N\Nc2ccc(Br)cc2)C(C(F)(F)F)=NN1c1ccccc1: 6

Challenge: State its inhibition at 20 µM on equine serum butyrylcholinesterase (BChE, EC 3.1.1.8) (Equus caballus, UniProt P81908): O=C1/C(=N\Nc2cccc(Cl)c2)C(C(F)(F)C(F)(F)F)=NN1c1ccccc1
Response given: 7.8

The values you see were collected from paper PMC9821843.
